- MEASUREMENT_TARGET: Core antigen (Hepatitis B virus)
- Sequence (Q03732 whole entry): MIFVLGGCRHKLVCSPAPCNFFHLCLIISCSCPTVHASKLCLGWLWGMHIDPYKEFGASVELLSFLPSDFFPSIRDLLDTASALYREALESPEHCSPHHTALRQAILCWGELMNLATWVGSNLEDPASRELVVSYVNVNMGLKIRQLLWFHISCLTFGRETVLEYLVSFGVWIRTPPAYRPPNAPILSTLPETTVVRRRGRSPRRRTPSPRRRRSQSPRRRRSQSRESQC
- ASSAY_NOTES: Inhibition of Hepatitis B virus core protein expressed in HBC cells derived from HEK293T cells assessed as reduction in HBcAg level incubated for 6 hrs by Nano-glo luciferase assay
- Format: cell-based
- DETAILS: read-out: IC50
Values of IC50 strictly less than 4 µM map to criterion met, and values of at least 4 µM map to criterion not met.

QUERY_SMILES | CAT
COc1ccc(CCc2nc3ccccc3[nH]2)cc1 | criterion not met
COc1ccc(Cc2nc3ccccc3n2C2CCC2)cc1 | criterion not met
COc1ccc(Sc2nc3ccccc3n2CCO)cc1 | criterion met
OCCn1c(Sc2ccc(F)cc2)nc2ccccc21 | criterion not met
Cc1ccc(Sc2nc3ccccc3[nH]2)cc1 | criterion not met
COc1ccc(Sc2nc3ccccc3n2CCCCCO)cc1 | criterion met
COc1ccc(Cc2nc3ccccc3n2CCCCO)cc1 | criterion met
COc1ccc(Cc2nc3ccccc3n2C(C)=O)cc1 | criterion met
CCc1ccc(Sc2nc3ccccc3n2CCO)cc1 | criterion not met
COc1ccc(Cc2nc3ccccc3n2-c2ccccc2)cc1 | criterion not met
Clc1cccc(Sc2nc3ccccc3[nH]2)c1 | criterion not met
COc1ccc(Sc2nc3ccccc3[nH]2)cc1 | criterion met
Clc1ccc(Sc2nc3ccccc3[nH]2)cc1Cl | criterion not met
